The reported numbers originate from PubChem BioAssay.

- assayNotes: viability gain of MRP-1-high H69AR cells under doxorubicin, pilot screen, MRP-1 activator project, CellTiter-Glo, duplicate (AID 807);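 also: compound pretreatment 18-22 h then 72 h combined with doxorubicin; 0% = doxorubicin alone and 100% = vehicle without doxorubicin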
- testSettings: H69AR viability with doxorubicin, CellTiter-Glo luminescence; at 10 µM; hits give high values
Quick list: viability increase per entry.
The answer is to be given in %; state only the numeric part.

CC1=C(C(=O)OCC2CCCO2)C(c2ccccc2)NC(=O)N1 (configuration not stated)	-0.06

Quick one: viability increase for "CCCn1c(CNC(=O)c2cccs2)nc2ccccc21" ?
-1.28

Also "COCCN1C=C(C(=O)OC)C(c2ccc3c(c2)OCO3)C(C(=O)OC)=C1" ?
2.8

* * *

- assayNotes: Restrictive medium S. cerevisiae growth inhibition, OD615, pilot screen of yeast lifespan reduction project, restrictive growth control (AID 706);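 also: modified DeaD lifespan yeast strain shifted to restrictive glucose medium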
- testSettings: OD615, 48 h, at 10 µM, hits give high values
Quick list: growth inhibition per entry.
The answer is to be given in %; state only the numeric part.

Worked cases, answers included:
O=c1oc2ccccc2n1Cc1ccccc1Cl	8.91
CCN(CC)c1ccc(NS(=O)(=O)c2ccc3c(c2)oc(=O)n3C)c(C)c1	-10.8
CCn1c(/C=N/n2cnnc2)nc2ccccc21	-5.67

Quick one: growth inhibition for "O=C(c1csc2c1CCCC2)n1cccn1" ?
15.7

Also CC(=O)C1(O)C(C)CC2C3CCC4CC(O)CCC4(C)C3=CCC21C (stereo not drawn) ?
-5.04

Also "COc1cc(C(=O)Nc2ccc(N(C)C)cc2)cc(OC)c1OC" ?
-11.7

Also "O=C(O)CCc1n[nH]c(=S)[nH]c1=O" ?
-17.3

Also CC(C)Oc1ccc(N2CC(C(=O)Nc3ccc4c(c3)OCO4)CC2=O)cc1 (stereo not drawn) ?
-4.22

Also CC(=O)OC(/C(O)=C(\C#N)c1nc2ccccc2[nH]1)c1ccccc1 (stereo not drawn) ?
3.63

Also COC(=O)C1CCCN1C(C(=O)NC1CCCCC1)c1ccc(Cl)cc1 (stereo not drawn) ?
-2.47

Also COc1ccc(-c2nc3n(n2)C(c2ccccc2Cl)C(C(N)=O)=C(C)N3)cc1 (stereo not drawn) ?
0.71

Also "O=C(O)CCC(=O)c1ccc2c(c1)OCCO2" ?
8.29

Also "COc1cc(N)ccc1Cc1ccc(N)cc1OC" ?
-2.19

Also COc1ccc(-n2c(SCC(=O)Nc3nccs3)nc3c(c2=O)SC(C)C3)cc1 (stereo not drawn) ?
-3.74

Also "Cc1ccccc1N1C(=O)C(Cl)=C(N2CCN(c3ccccc3)CC2)C1=O" ?
-12.1

Also "COc1cccc(NC(=O)CSc2nnc(Cn3c(=O)sc4ccccc43)n2C)c1" ?
18.9

Also COc1cccc(-c2nc(CS(=O)CC(=O)NCc3ccccc3)c(C)o2)c1 (stereo not drawn) ?
-15.4

Also CCc1cc2c(=O)c(-c3nc4ccccc4[nH]3)coc2c(CN2CCCC(C)C2)c1O (stereo not drawn) ?
12.3

Also "CCOC(=O)c1cnc2nc[nH]n2c1=O" ?
11.7

Also "O=C(CN(Cc1ccccc1F)S(=O)(=O)c1ccc(Cl)cc1)NCCCO" ?
-2.21

Also CCOC(=O)c1sc(NC(=O)C2CCCO2)c(C(=O)OCC)c1C (stereo not drawn) ?
-8.48

Also CCCOc1ccc(N2CC(C(=O)Nc3ccccc3OC)CC2=O)cc1 (stereo not drawn) ?
-6.16

Also "CC(=O)N1c2ccccc2N(Cc2ccc(C)cc2C)C(=O)C1(C)C" ?
5.81
